procedure-details: Toxicity LD50 mouse
conditions: in vivo, po, read-out: Toxicity LD 50
# LD50 values compiled below
property-name: LD50

* CCC(=O)OCC1CN(c2ccc(OCc3cccc([N+](=O)[O-])c3)cc2)C(=S)O1 (stereo not shown) | > 1000 mg/kg
* COCC1CN(c2ccc(OCc3cccc(I)c3)cc2)C(=O)O1 (stereo not shown) | > 1000 mg/kg
* COCC1CN(c2ccc(OCc3cc(C#N)cc([N+](=O)[O-])c3)cc2)C(=S)O1 (stereo not shown) | > 1000 mg/kg
* COCC1CN(c2ccc(OCCC(C)C)cc2)C(=S)O1 (stereo not shown) | 1000 mg/kg
* COCC1CN(c2ccc(OCc3ccc(F)c([N+](=O)[O-])c3)cc2)C(=O)O1 (stereo not shown) | > 1000 mg/kg
* COCC1CN(c2ccc(-c3ccccc3)cc2)C(=O)O1 (stereo not shown) | > 1000 mg/kg
* COCC1CN(c2ccc(OCCCCCl)cc2)C(=O)O1 (stereo not shown) | > 1000 mg/kg
* COCC1CN(c2ccc(OCC=C(C)C)cc2)C(=O)O1 (stereo not shown) | > 1000 mg/kg
* COCC1CN(c2ccc(OCC3=CCCC3)cc2)C(=O)O1 (stereo not shown) | > 1000 mg/kg
* N#CCCCOc1ccc(N2CC(CO)OC2=S)cc1 (stereo not shown) | 1000 mg/kg
* O=C1OC(CN2CCOCC2)CN1c1ccc(OCc2cccc([N+](=O)[O-])c2)cc1 (stereo not shown) | > 1000 mg/kg
* O=C(COc1ccccc1)OCC1CN(c2ccc(OCc3cccc([N+](=O)[O-])c3)cc2)C(=O)O1 (stereo not shown) | > 1000 mg/kg
* COCC1CN(c2ccc(OCC3CCCC3)cc2)C(=O)O1 (stereo not shown) | 2000 mg/kg
* COCC1CN(c2ccc(OCC3(C)CCCC3)cc2)C(=O)O1 (stereo not shown) | > 1000 mg/kg
* NCC1CN(c2ccc(OCc3cc(Cl)cc([N+](=O)[O-])c3)cc2)C(=O)O1 (stereo not shown) | > 1000 mg/kg
* CC=CCOc1ccc(N2CC(COC)OC2=O)cc1 (stereo not shown) | > 1000 mg/kg
* COCC1CN(c2ccc(CCc3ccccc3)cc2)C(=O)O1 (stereo not shown) | > 1000 mg/kg
* COCC1CN(c2ccc(OCc3cccc([N+](=O)[O-])c3)cc2)C(=O)S1 (stereo not shown) | > 1000 mg/kg
* COCC1CN(c2ccc(C#Cc3ccccc3)cc2)C(=O)O1 (stereo not shown) | > 1000 mg/kg
* N#CCCCCOc1ccc(N2CC(CO)OC2=S)cc1 (stereo not shown) | > 1000 mg/kg
* CC(=O)OCC1CN(c2ccc(OCCC#N)cc2)C(=O)O1 (stereo not shown) | > 2000 mg/kg
* CN(C)CC1CN(c2ccc(OCc3cccc(C#N)c3)cc2)C(=O)O1 (stereo not shown) | > 1000 mg/kg
* COCC1CN(c2ccc(OCc3cccc([N+](=O)[O-])c3)cc2)C(=O)O1 (stereo not shown) | 1500 mg/kg
* COCC1CN(c2ccc(OCCC#N)cc2)C(=O)O1 (stereo not shown) | > 2000 mg/kg
* COCC1CN(c2ccc(/C=C/c3cccc(C#N)c3)cc2)C(=O)O1 (stereo not shown) | > 1000 mg/kg
* CCC(=O)OCC1CN(c2ccc(OCc3ccccc3)cc2)C(=O)O1 (stereo not shown) | > 2000 mg/kg
* COCC1CN(c2ccc(N(C)C)cc2)C(=O)O1 (stereo not shown) | 1000 mg/kg
* CC(C)NCC1CN(c2ccc(OCc3cccc([N+](=O)[O-])c3)cc2)C(=O)O1 (stereo not shown) | > 1000 mg/kg
* CCNCC1CN(c2ccc(OCc3cccc([N+](=O)[O-])c3)cc2)C(=O)O1 (stereo not shown) | 1000 mg/kg
* N#Cc1cc(COc2ccc(N3CC(CO)OC3=S)cc2)ccc1F (stereo not shown) | 1000 mg/kg
* CNCC1CN(c2ccc(OCc3cccc([N+](=O)[O-])c3)cc2)C(=O)O1 (stereo not shown) | 1000 mg/kg
* COC[C@@H]1CN(c2ccc(OCc3cccc(C#N)c3)cc2)C(=O)O1 | > 1000 mg/kg
* CC(C)CCOc1ccc(N2CC(CO)OC2=S)cc1 (stereo not shown) | > 2000 mg/kg
* O=C1CC(CO)CN1c1ccc(OCc2cccc([N+](=O)[O-])c2)cc1 (stereo not shown) | > 2000 mg/kg
* COCC1CN(c2ccc(OCc3cccc([N+](=O)[O-])c3)cc2)C(=S)O1 (stereo not shown) | > 2000 mg/kg
* CCCOCC1CN(c2ccc(OCc3cccc([N+](=O)[O-])c3)cc2)C(=S)O1 (stereo not shown) | > 1000 mg/kg
* COCC1CN(c2ccc(OCc3cccc(Br)c3)cc2)C(=O)O1 (stereo not shown) | > 1000 mg/kg
